- TEST: Volume of distribution at steady state in Sprague-Dawley rat at 2 mg/kg, iv
- Format: ADME, organism-based
- Parameters: dose 2 mg/kg, route intravenous
- SETUP_CONDITIONS: in vivo, read-out: Vdss
# label = YES if Vd >= 1 L/kg else NO

Request: Determine whether this compound has Vd no lower than 1 L/kg: Cc1cc(N2N=C3c4ccc(C(=O)O)cc4CO[C@@H]3[C@@H]2C2CCCC2)ccc1C#N
Response: NO

Request: Determine whether this compound has Vd no lower than 1 L/kg: COc1cc(C2=NN(c3ccc(C#N)c(Cl)c3)[C@@H](C3CCCC3)C2)ccc1C(=O)O
Response: YES

Request: Determine whether this compound has Vd no lower than 1 L/kg: N#Cc1ccc(N2N=C3c4ccc(C(=O)O)cc4CC[C@@H]3[C@@H]2C2CCCC2)cc1Cl
Response: YES

Request: Determine whether this compound has Vd no lower than 1 L/kg: CCOc1cc(C2=NN(c3ccc(C#N)c(Cl)c3)[C@@H](C3CCCC3)C2)ccc1C(=O)O
Response: NO

Request: Determine whether this compound has Vd no lower than 1 L/kg: N#Cc1ccc(N2N=C(c3ccc(C(=O)O)cc3)C[C@@H]2c2ccc(F)cc2)cc1Cl
Response: YES

Request: Determine whether this compound has Vd no lower than 1 L/kg: N#Cc1ccc(N2N=C(c3ccc(C(=O)O)cc3)C[C@@H]2C2CCCC2)cc1Cl
Response: YES

* * *

- TGT: Estrogen receptor (Homo sapiens)
- Sequence (P03372 whole entry): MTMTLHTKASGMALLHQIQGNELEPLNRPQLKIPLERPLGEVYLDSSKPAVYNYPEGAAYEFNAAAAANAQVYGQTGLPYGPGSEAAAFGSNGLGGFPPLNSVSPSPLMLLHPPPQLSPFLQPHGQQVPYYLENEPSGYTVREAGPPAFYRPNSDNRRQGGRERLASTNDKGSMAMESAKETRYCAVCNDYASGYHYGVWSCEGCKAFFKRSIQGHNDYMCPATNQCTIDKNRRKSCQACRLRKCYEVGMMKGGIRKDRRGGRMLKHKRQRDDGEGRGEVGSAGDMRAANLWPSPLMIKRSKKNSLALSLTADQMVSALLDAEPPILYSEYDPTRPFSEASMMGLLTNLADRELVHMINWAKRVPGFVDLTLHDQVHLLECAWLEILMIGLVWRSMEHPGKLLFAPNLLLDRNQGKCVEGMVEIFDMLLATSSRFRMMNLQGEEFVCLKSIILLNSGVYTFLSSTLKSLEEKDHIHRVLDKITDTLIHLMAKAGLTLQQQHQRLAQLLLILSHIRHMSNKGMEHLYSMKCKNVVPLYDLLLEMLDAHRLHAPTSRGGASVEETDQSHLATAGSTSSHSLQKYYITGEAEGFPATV
- TEST: Antagonist activity at estrogen receptor
pIC50: −log10 of the molar value.
VALUE_TYPE: pIC50

Request: Would you mind telling me what pIC50 value was observed for COC(=O)[C@@H]1CC2=CC(=O)CC[C@]2(C)[C@@]23O[C@@H]2C[C@@]2(C)[C@@H](CC[C@@]24CCC(=O)O4)[C@H]13 [EPLERENONE] ?
Response: < 5.00

Request: Would you mind telling me what pIC50 value was observed for CCOc1cc(C2=NN(c3ccc(C#N)c(Cl)c3)[C@@H](C3CCCC3)C2)ccc1C(=O)O ?
Response: < 5.30

Request: Would you mind telling me what pIC50 value was observed for CC(=O)S[C@@H]1CC2=CC(=O)CC[C@]2(C)[C@H]2CC[C@@]3(C)[C@@H](CC[C@@]34CCC(=O)O4)[C@H]12 [SPIRONOLACTONE] ?
Response: 5.24

Request: Would you mind telling me what pIC50 value was observed for COc1cc(C2=NN(c3ccc(C#N)c(Cl)c3)[C@@H](C3CCCC3)C2)ccc1C(=O)O ?
Response: < 5.00

* * *

- TEST: Clearance in Sprague-Dawley rat at 2 mg/kg, iv
- Type: ADME, organism-based
- Parameters: dose 2 mg/kg, route intravenous
- SETUP_CONDITIONS: in vivo
Kindly state clearance for each of the entries shown.
Answer with the figure and its unit, nothing else.

Request: Would you mind telling me what clearance value was observed for N#Cc1ccc(N2N=C(c3ccc(C(=O)O)cc3)C[C@@H]2c2ccc(F)cc2)cc1Cl ?
Response: 6.9 mL/min/kg

Request: Would you mind telling me what clearance value was observed for Cc1cc(N2N=C3c4ccc(C(=O)O)cc4CO[C@@H]3[C@@H]2C2CCCC2)ccc1C#N ?
Response: 4.6 mL/min/kg

Request: Would you mind telling me what clearance value was observed for COc1cc(C2=NN(c3ccc(C#N)c(Cl)c3)[C@@H](C3CCCC3)C2)ccc1C(=O)O ?
Response: 24 mL/min/kg

Request: Would you mind telling me what clearance value was observed for N#Cc1ccc(N2N=C(c3ccc(C(=O)O)cc3)C[C@@H]2C2CCCC2)cc1Cl ?
Response: 34 mL/min/kg

Request: Would you mind telling me what clearance value was observed for CCOc1cc(C2=NN(c3ccc(C#N)c(Cl)c3)[C@@H](C3CCCC3)C2)ccc1C(=O)O ?
Response: 5.5 mL/min/kg

Request: Would you mind telling me what clearance value was observed for N#Cc1ccc(N2N=C3c4ccc(C(=O)O)cc4CC[C@@H]3[C@@H]2C2CCCC2)cc1Cl ?
Response: 9.8 mL/min/kg
